These entries and their values trace back to ChEMBL document CHEMBL1201862.

Tested on: M14
Test: NCI tumour cell line growth inhibition, 48 h
Calls of active or inactive are those of the source. No stated cut-off is given here; in the data, active = GI50 up to about 1.1 µM and inactive = higher.
assay-readout: GI50

{"columns": ["compound", "GI50"],
 "data": [
  ["COc1ccc(S(=O)(=O)c2ccccc2[N+](=O)[O-])cc1", "> 100 µM (inactive)"],
  ["CC(=O)c1sc2n(C)c(=O)c3ccccc3[n+]2c1C", "> 100 µM (inactive)"],
  ["COc1ccccc1OCC(=N/NC(=O)c1ccncc1)/N=C/c1cccnc1", "> 100 µM (inactive)"],
  ["[O-][Cl+3]([O-])([O-])O.c1ccc(C2=NN2c2ccccc2)cc1", "9.82 µM (inactive)"],
  ["O=C1C=CC[C@H]2O[C@@H](COC(=O)Cc3ccccc3)C[C@H]2O1", "31.7 µM (inactive)"],
  ["c1cc(Sc2nc(Sc3ccncc3)nc(Sc3ccncc3)n2)ccn1", "> 100 µM (inactive)"],
  ["CCOC(=O)C1=C(C)NC(=S)NC1c1ccccc1 (stereo unspecified)", "> 100 µM (inactive)"],
  ["CS(=O)(=O)OCCN(CCOS(C)(=O)=O)c1ccc(/C=N/c2ccc(-c3csc(COc4ccccc4)n3)cc2)cc1", "5.6 µM (inactive)"]
]}

Query: Quick check: GI50 of COc1ccc(C(=O)C(C(=O)C(=O)NCCCNC(=O)C(=O)C(C(=O)c2ccc(OC)cc2)c2ccc(OC)cc2)c2ccc(OC)cc2)cc1 (stereo unspecified) ?
Reply: > 100 µM (inactive)

Query: Please give the result for O=CC1=C(C(=O)OC(c2ccccc2)c2ccccc2)N2C(=O)[C@@H](NC(=O)Cc3cccs3)[C@H]2SC1 too.
Reply: > 100 µM (inactive)

Query: Follow-up entry: O=C(N/N=C(COc1ccccc1Cl)\N=C\c1cccnc1)c1ccncc1
Reply: > 100 µM (inactive)

* * *

System: DMS-273
Assay: NCI tumour cell line growth inhibition, 48 h
Calls of active or inactive are those of the source. Cut-off read from the data, not from the text of the source: active = GI50 up to about 1.1 µM and inactive = higher.
Please reply with one of these outcomes: active, inactive

{"columns": ["molecule", "tested-target", "category-label"],
 "data": [
  ["Nc1ccc(C(=O)NN2C(=O)C(Cl)C2c2ccc(O)cc2)cc1 (stereo not given)", "DMS-273", "inactive"],
  ["CN1C(=O)CCC2[C@@H]3CC=C4C[C@@H](O)CC[C@]4(C)C3CC[C@@]21C (stereo not given in full)", "DMS-273", "inactive"],
  ["CCN(CC)CCCNc1nccc2c(C)c3[nH]c4ccncc4c(=O)c3cc12", "DMS-273", "inactive"]
]}

Query: Given O=S1(=O)N2CN3CN(C2)CN1C3 , state the outcome it received in this test.
Reply: inactive

Query: What do you have for Cc1ccc(Oc2ccc(C)cc2[N+](=O)[O-])cc1 ?
Reply: inactive

Query: Entry CN(C)CCNc1c([N+](=O)[O-])cc2c3c(cccc13)C(=O)N(CCN(C)C)C2=O please
Reply: active

Query: Also, COc1ccc(S(=O)(=O)c2ccccc2[N+](=O)[O-])cc1 please.
Reply: inactive

Query: Another molecule: C=CCNC(=O)C(C)C1CCC2(C)C=CC(=O)C(C)=C2C1O (stereo not given)
Reply: inactive

Query: Try this molecule too: CN(C)CCNC(=O)c1ccc(Cl)c2c(Nc3ccc(S(=O)(=O)N=C(N)N)cc3)c3ccccc3nc12
Reply: inactive

Query: Please give the result for COc1ccc(NC(=O)CSc2nnc(Cc3ccccc3)o2)cc1 too.
Reply: inactive
